# TGT: DND1 1-230 (RRM1-RRM2);NANOS3 ZF+C (human;human, UniProt Q8IYX4;P60323 1-230;55-173, |)
# Sequence (Q8IYX4 1-230, chain 1 of 2): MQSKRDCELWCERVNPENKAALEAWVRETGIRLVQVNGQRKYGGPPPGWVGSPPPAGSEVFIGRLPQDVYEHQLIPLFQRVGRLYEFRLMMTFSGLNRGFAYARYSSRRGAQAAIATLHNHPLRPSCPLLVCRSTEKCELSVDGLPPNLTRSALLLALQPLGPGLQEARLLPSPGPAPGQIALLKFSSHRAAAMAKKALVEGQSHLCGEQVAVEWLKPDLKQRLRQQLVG
# Sequence (P60323 55-173, chain 2 of 2): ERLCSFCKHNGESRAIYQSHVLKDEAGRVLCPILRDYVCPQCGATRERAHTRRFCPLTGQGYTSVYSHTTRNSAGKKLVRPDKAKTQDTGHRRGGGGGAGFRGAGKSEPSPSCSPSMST
# MEASUREMENT NOTES: MST; DND1 titrated, 2 uM NANOS3 ZF+C; MST: 20 mM HEPES pH 7.4, 150 mM NaCl, 1 mM DTT, 0.05% Tween20 and 10 ug/mL yeast tRNA after 1:1 mixing, 5 nM Cy5-RNA, partner 2 uM final, 30 min at room temperature, measured at 25 C
# CONDITION LABEL: protein: recombinant;recombinant; tags: His6-SUMO removed by Ulp1; N-terminal Ser (residue 0) from BamHI site;His6-SUMO removed by Ulp1; N-terminal Ser (residue 54) from BamHI site; copies: 1;1; label: 5'-Cy5
QUANTITY NAME: pKd
One number for each entry, as −log10 of the molar value.

BINDER: AUGCCACUCU (ssRNA) [D1-N3mut]
pKd: 4.92

Could you tell me pKd for each of these binders? They are listed below.
1. AUAUGACUCU (ssRNA) [N3mut]
2. AUGCCAAUUU (ssRNA) [D1mut]

OUTPUT:
1: 5.57; 2: 4.82
